In this section we review reported melting point values for a set of molecules.

Example results:
[[record]]
molecule = "CCOC(=O)c1ccc(NCCCc2ccccc2OC)cc1"
result = "106 to 109 °C"

[[record]]
molecule = "CC(C)CCC1CCCCCc2c1oc(=O)c(C(c1ccccc1)C1CC1)c2O (stereo not drawn)"
result = "83 to 88 °C"

[[record]]
molecule = "CC#CN1CCN(C(=O)c2ccccc2)CC1"
result = "94 to 95 °C"

[[record]]
molecule = "Cn1cnc(COc2nn3c(-c4ccccc4)nnc3cc2-c2ccccc2)c1"
result = "199 to 202 °C"

[[record]]
molecule = "Cc1cccc2c(-c3ccc(C(F)(F)F)cc3)onc12"
result = "118 to 119 °C"

[[record]]
molecule = "COC(=O)C1=C(C)NCC(C)(C(=O)OC)C1c1ccccc1C=C[Si](C)(C)C (stereo not drawn)"
result = "148 to 150 °C"

[[record]]
molecule = "CCCCC(Cc1ccc(OCCN(CC)CC)cc1)(C(=O)O)S(=O)(=O)c1ccc(OC)cc1 (stereo not drawn)"
result = "67 °C"

[[record]]
molecule = "COc1nc(Cl)nc2c1c(C#N)cn2C1OC(CO)C(O)C1O (stereo not drawn)"
result = "194 to 195 °C"


Looking for the measured melting point of `COCCc1nc2c(N)nc3ccccc3c2n1CCOCCN(C)C(=O)c1ccccc1` , can you help?
93.5 to 97 °C

Try this molecule too: COc1ccc(N2c3ccccc3CCC2c2ccccc2)cc1 (stereo not drawn)
88 to 90 °C

====

Below is a list of entries, each paired with its recorded melting point value.

Which melting point is reported for this molecule? `O=C(O)c1snc(-c2cccc(Cl)c2)c1C(=O)O`
185 to 186 °C

====

Consider the following compounds and their measured melting point readings.

// solved cases for melting point follow
[[record]]
compound = "O=C1c2ccccc2C(=O)N1CCCN1C(=O)C2(COc3cc4c(cc32)CCO4)c2ccccc21 (stereo not given)"
result = "214 to 217 °C"

[[record]]
compound = "CC(C)(C)C(=O)OCOC(=O)C1CCc2c(c3ccccc3n2C(=O)c2ccccc2)C1 (stereo not given)"
result = "75 to 77 °C"

[[record]]
compound = "O=C(Cl)c1cscc1S(=O)(=O)Cl"
result = "78 to 79 °C"

[[record]]
compound = "CN(C)C=C(C=O)c1ccc(C(F)(F)F)cc1"
result = "97 °C"


Give the measured melting point of CC(C)c1ccc(-c2ccc(F)cc2)n1C(C)CC1CC(O)CC(=O)O1 (stereo not given) .
167 to 169 °C

Follow-up item: `COc1ccc(Nc2c([N+](=O)[O-])cc([N+](=O)[O-])cc2C(F)(F)F)nc1`
102 to 105 °C

Now consider CC(C)(Cc1ccccc1)C(NC(=O)COc1ccccc1)Nc1c(Nc2cccnc2)c(=O)c1=O (stereo not given) .
249 to 250 °C

For `C=CCn1nc(-c2sc(C(=O)NCc3ccccn3)nc2-c2ccccc2)ccc1=O` then?
117 to 118 °C

Next entry: `O=[N+]([O-])c1c(Br)nn(CCO)c1NCc1ccccc1`
133 to 135 °C

Repeat with S=C(Nc1cccc(Cl)c1)N1CCCSC1c1ccc(Br)cc1 (stereo not given)
144 to 146 °C

====

Measured melting point values are reported for all entries that follow.

[[record]]
molecule = "CC1=C(c2ccc(C(=O)N3Cc4ccc(C(=O)C(Cl)(Cl)Cl)n4Cc4ccccc43)cc2)CCCC1"
result = "171 °C"

[[record]]
molecule = "CC(C)C/C(=C/CCNC(=O)OCc1ccccc1)C(=O)O"
result = "70 to 71 °C"

[[record]]
molecule = "C1=NNC(c2ccccc2)c2ccccc21 (stereo not given)"
result = "79 °C"

[[record]]
molecule = "COc1ccc(C(c2ccc(OC)cc2)c2cnccc2C(=O)O)cc1"
result = "122 to 124 °C"

[[record]]
molecule = "CC(C)NC(=O)OCC(=O)c1cccc(Br)c1"
result = "125 to 129 °C"

[[record]]
molecule = "CCn1cc(C(=O)O)c(=O)cc1-c1cccnc1"
result = "209 to 210 °C"

[[record]]
molecule = "CC(C)(C)OC(=O)N1CCN(c2cccc3c2c(Br)cn3S(=O)(=O)c2ccccc2)CC1"
result = "188 to 189 °C"

[[record]]
molecule = "CC(=Cc1cccc([N+](=O)[O-])c1)C(=O)O"
result = "201 to 202 °C"

[[record]]
molecule = "CC(C)(C)OC(=O)N1CC=C(c2cnc3c(c2)N(Cc2cc(Cl)ccc2Cl)CCN3)CC1"
result = "92 to 95 °C"

[[record]]
molecule = "CNc1cnc(N(Cc2ccccc2)C(=O)OCc2ccccc2)cc1-c1ccccc1C"
result = "110 to 112 °C"


State the recorded melting point for this entry: `CCS(=O)(=O)Oc1ccc(C(C)(C)C)cc1C(C)(C)C`
76 °C

Entry `C=CCC1=C(Cl)C(=O)c2ccccc2C1=O` please
69 to 70 °C
